# experimental-target: Thrombin (Homo sapiens, UniProt P00734)
# assay-notes: thrombin inhibition activity assay (D.4), specific activity
# Type: biochemical
# test-conditions: cysteine-PEGylated protein relative to same protein before PEGylation
measure: REL TO ACTIVITY BEFORE PEG, AFTER PEG MODIFICATION
API note: the answer field is a bare number with no unit suffix.

molecule	quantitative-result
H252C (conjugate, UniProt P07093 20-398, looked up, variant H252C, PEG) Glia-derived nexin: SHFNPLSLEELGSNTGIQVFNQIVKSRPHDNIVISPHGIASVLGMLQLGADGRTKKQLAMVMRYGVNGVGKILKKINKAIVSKKNKDIVTVANAVFVKNASEIEVPFVTRNKDVFQCEVRNVNFEDPASACDSINAWVKNETRDMIDNLLSPDLIDGVLTRLVLVNAVYFKGLWKSRFQPENTKKRTFVAADGKSYQVPMLAQLSVFRCGSTSAPNDLWYNFIELPYHGESISMLIALPTESSTPLSAIIPCISTKTIDSWMSIMVPKRVQVILPKFTAVAQTDLKEPLKVLGITDMFDSSKANFAKITTGSENLHVSHILQKAKIEVSEDGTKASAATTAILIARSSPPWFIVDRPFLFFIRHNPTGAVLFMGQINKP	2.5
D147C (conjugate, UniProt P07093 20-398, looked up, variant D147C, PEG) Glia-derived nexin: SHFNPLSLEELGSNTGIQVFNQIVKSRPHDNIVISPHGIASVLGMLQLGADGRTKKQLAMVMRYGVNGVGKILKKINKAIVSKKNKDIVTVANAVFVKNASEIEVPFVTRNKDVFQCEVRNVNFEDPASACDSINAWVKNETRDMICNLLSPDLIDGVLTRLVLVNAVYFKGLWKSRFQPENTKKRTFVAADGKSYQVPMLAQLSVFRCGSTSAPNDLWYNFIELPYHGESISMLIALPTESSTPLSAIIPHISTKTIDSWMSIMVPKRVQVILPKFTAVAQTDLKEPLKVLGITDMFDSSKANFAKITTGSENLHVSHILQKAKIEVSEDGTKASAATTAILIARSSPPWFIVDRPFLFFIRHNPTGAVLFMGQINKP	2

Next item in the queue.
Give the value of REL TO ACTIVITY BEFORE PEG, AFTER PEG MODIFICATION reported for the following: N85C (conjugate, UniProt P07093 20-398, looked up, variant N85C, PEG) Glia-derived nexin: SHFNPLSLEELGSNTGIQVFNQIVKSRPHDNIVISPHGIASVLGMLQLGADGRTKKQLAMVMRYGVNGVGKILKKINKAIVSKKCKDIVTVANAVFVKNASEIEVPFVTRNKDVFQCEVRNVNFEDPASACDSINAWVKNETRDMIDNLLSPDLIDGVLTRLVLVNAVYFKGLWKSRFQPENTKKRTFVAADGKSYQVPMLAQLSVFRCGSTSAPNDLWYNFIELPYHGESISMLIALPTESSTPLSAIIPHISTKTIDSWMSIMVPKRVQVILPKFTAVAQTDLKEPLKVLGITDMFDSSKANFAKITTGSENLHVSHILQKAKIEVSEDGTKASAATTAILIARSSPPWFIVDRPFLFFIRHNPTGAVLFMGQINKP
1.2
